Values were extracted from paper PMC7377239.

System: iCell cardiomyocytes (human iPSC-derived cardiomyocytes)
Experimental Protocol: Intracellular Ca2+ flux / beating parameters in iCell cardiomyocytes (FLIPR tetra), 90 min or 24 h
Type: cell-based
Conditions: Homo sapiens, Cardiomyocyte, 24 h, 0.10 µM; 0.00 µM = 100.00; read-out: cm.spacing.cv.24hrs
Where a name gives a salt, the structure may show the parent alone.
Observed Property: activity at 0.1 µM

Example cases with answers are listed next.
COc1ccc(-c2cccc(Cl)c2)cc1Cl    101%
Clc1ccc(-c2ccccc2)cc1    61.2%
O=S(=O)(O)Oc1cc(Cl)ccc1-c1ccccc1 [2-yl PCB 3 sulfate]    50.5%
Oc1cccc(-c2ccc(Cl)cc2)c1    100%
Oc1cc(Cl)cc(-c2cccc(Cl)c2)c1    113%
COc1ccc(-c2ccc(Cl)cc2)cc1    49.7%
O=S(=O)(O)Oc1cccc(-c2ccc(Cl)cc2)c1 [3'-yl PCB 3 sulfate]    98.6%

IN: Give me measured activity at 0.1 µM, please, for this compound: Oc1ccccc1-c1ccc(Cl)cc1
OUT: 111%

###

Tested on: iCell cardiomyocytes (human iPSC-derived cardiomyocytes)
Experimental Protocol: High-content imaging of cytotoxicity and mitochondrial integrity in iPSC-CMs
Format: cell-based
Conditions: Homo sapiens, Cardiomyocyte, 24 h, 0.01 µM; 0.00 µM = 100.00; read-out: cm.mii.24hrs
Counter-ions that a name gives are not always drawn.
Observed Property: activity at 0.01 µM (%)
API: value field is a number in %; no unit string.

Example cases with answers are listed next.
O=S(=O)(O)Oc1cc(-c2ccccc2)ccc1Cl [3-yl PCB 3 sulfate]    113
O=S(=O)(O)Oc1ccc(-c2ccc(Cl)cc2)cc1 [4'-yl PCB 3 sulfate]    98.4
COc1ccc(-c2cccc(Cl)c2)cc1Cl    95.8
O=C1C=CC(=O)C(c2ccc(Cl)cc2)=C1    100

IN: Give me measured activity at 0.01 µM, please, for this molecule: COc1ccc(-c2ccc(Cl)cc2)cc1
OUT: 87

###

System: HUVECs
Experimental Protocol: High-content imaging cytotoxicity in HUVECs, 24 h
Type: cell-based, human
Conditions: Homo sapiens, HUVEC, 24 h, HUVEC, mitoint, 24 hr; read-out: POD huvec.mitoint.24hr
Here, each record is paired with measured minimal effective concentration data.
API: value field is a number in µM; no unit string.

Example cases with answers are listed next.
Oc1ccc(O)c(-c2ccc(Cl)cc2)c1 [2',5'-diOH-PCB 3, 4-Chloro-2′,5′-dihydroxybiphenyl]    3.51
Clc1ccc(Cl)c(-c2c(Cl)ccc(Cl)c2Cl)c1 [PCB 95, 2,2′,3,5′,6-pentachlorobiphenyl]    7.41
Clc1ccc(Cl)c(-c2c(Cl)ccc(Cl)c2Cl)c1Cl [(+)-PCB 136, 2,2′,3,3′,6,6′-hexachlorobiphenyl]    0.64
Clc1cc(Cl)c(-c2cc(Cl)c(Cl)cc2Cl)cc1Cl [PCB 153, 2,2′,4,4′,5,5′-hexachlorobiphenyl]    0.83
O=C1C=CC(=O)C(c2ccc(Cl)cc2)=C1 [4-Cl-BQ, 2-(4-Chlorophenyl)benzo-2,5-quinone]    0.68

IN: Give me measured minimal effective concentration, please, for this compound: COc1cc(Cl)c(-c2cc(Cl)ccc2Cl)cc1Cl [4-OMe-PCB 52, 4-methoxy-2,2′,5,5′-tetrachlorobiphenyl]
OUT: 2.69

###

Here, each record is paired with measured activity at 0.1 µM data.
Tested on: iCell cardiomyocytes (human iPSC-derived cardiomyocytes)
Experimental Protocol: High-content imaging of cytotoxicity and mitochondrial integrity in iPSC-CMs
Format: cell-based
Conditions: Homo sapiens, Cardiomyocyte, 1.5 h, 0.10 µM; 0.00 µM = 100.00; read-out: cm.mito.90min
Where a name gives a salt, the structure may show the parent alone.
API: value field is a number in %; no unit string.

Example cases with answers are listed next.
Oc1ccccc1-c1ccc(Cl)cc1    95.6
Oc1cc(Cl)cc(-c2cccc(Cl)c2)c1    96.4
O=S(=O)(O)Oc1cccc(-c2ccc(Cl)cc2)c1 [3'-yl PCB 3 sulfate]    98.3
COc1ccc(-c2cccc(Cl)c2)cc1Cl    101

Next:
IN: Give me measured activity at 0.1 µM, please, for this compound: Clc1ccc(-c2ccccc2)cc1
OUT: 97.7

###

Here, each record is paired with measured activity at 100 µM data.
Test system: iCell endothelial cells (human iPSC-derived ECs)
Experimental Protocol: Tube formation (tubulogenesis) assay in iCell endothelial cells, 18 h
Type: cell-based
Conditions: Homo sapiens, Endothelial cell, iPSC-EC tube formation, 18 hr, 100.00 µM, 0.00 µM control = 100.00, read-out: endo.tta.18hr
Structures can show the parent of a compound that is named as a salt.
API: value field is a number in %; no unit string.

Example cases with answers are listed next.
Oc1cc(Cl)cc(-c2cccc(Cl)c2)c1    1.58
Oc1ccc(-c2ccc(Cl)cc2)cc1    0.34

IN: Give me measured activity at 100 µM, please, for this molecule: O=S(=O)(O)Oc1cc(Cl)ccc1-c1ccccc1 [2-yl PCB 3 sulfate]
OUT: 92.2

IN: Give me measured activity at 100 µM, please, for this molecule: COc1ccc(-c2cccc(Cl)c2)cc1Cl
OUT: 101

IN: Give me measured activity at 100 µM, please, for this molecule: O=S(=O)(O)Oc1cc(-c2ccccc2)ccc1Cl [3-yl PCB 3 sulfate]
OUT: 78.8

IN: Give me measured activity at 100 µM, please, for this molecule: Oc1ccc(-c2cccc(Cl)c2)cc1Cl
OUT: 9.99

###

Test system: iCell endothelial cells (human iPSC-derived ECs)
Experimental Protocol: High-content imaging cytotoxicity in iCell endothelial cells, 24 h
Type: cell-based
Conditions: Homo sapiens, Endothelial cell, iPSC-EC, 24 hr, top concentration 100.00 µM, read-out: endo.mito.24hr POD
Counter-ions that a name gives are not always drawn.
Here, each record is paired with measured minimal effective concentration data.
API: value field is a number in µM; no unit string.

Example cases with answers are listed next.
Oc1ccc(-c2cccc(Cl)c2)cc1Cl [4-OH PCB11]    43.6
Clc1ccc(Cl)c(-c2cc(Cl)ccc2Cl)c1 [PCB52]    100
O=S(=O)(O)Oc1cccc(-c2ccc(Cl)cc2)c1 [3'-yl PCB 3 sulfate]    100
O=S(=O)(O)Oc1cc(Cl)ccc1-c1ccccc1 [2-yl PCB 3 sulfate]    100
Oc1cc(Cl)c(-c2cc(Cl)ccc2Cl)cc1Cl [4-OH PCB52]    13.2

Next:
IN: Give me measured minimal effective concentration, please, for this compound: Clc1ccc(-c2ccccc2)cc1 [PCB3]
OUT: 100

###

Here, each record is paired with measured activity at 100 µM data.
Test system: iCell cardiomyocytes (human iPSC-derived cardiomyocytes)
Experimental Protocol: Intracellular Ca2+ flux / beating parameters in iCell cardiomyocytes (FLIPR tetra), 90 min or 24 h
Type: cell-based
Conditions: Homo sapiens, Cardiomyocyte, 24 h, 100.00 µM; 0.00 µM = 100.00; read-out: cm.amp.avg.24hrs
Where a name gives a salt, the structure may show the parent alone.
API: value field is a number in %; no unit string.

Oc1cc(Cl)cc(-c2cccc(Cl)c2)c1    0

IN: Give me measured activity at 100 µM, please, for this molecule: O=S(=O)(O)Oc1cccc(-c2ccc(Cl)cc2)c1 [3'-yl PCB 3 sulfate]
OUT: 85

IN: Give me measured activity at 100 µM, please, for this molecule: O=S(=O)(O)Oc1cc(Cl)ccc1-c1ccccc1 [2-yl PCB 3 sulfate]
OUT: 97.7

IN: Give me measured activity at 100 µM, please, for this molecule: Clc1cccc(-c2cccc(Cl)c2)c1
OUT: 0

IN: Give me measured activity at 100 µM, please, for this molecule: O=C1C=CC(=O)C(c2ccc(Cl)cc2)=C1
OUT: 0

IN: Give me measured activity at 100 µM, please, for this molecule: COc1ccc(-c2cccc(Cl)c2)cc1Cl
OUT: 0

###

Here, each record is paired with measured minimal effective concentration data.
Test system: iCell cardiomyocytes (human iPSC-derived cardiomyocytes)
Experimental Protocol: High-content imaging of cytotoxicity and mitochondrial integrity in iPSC-CMs
Type: cell-based
Conditions: Homo sapiens, iPSC-CM, 24 h, iPSC-CM; read-out: cm.cam.24hrs POD
Counter-ions that a name gives are not always drawn.
API: value field is a number in µM; no unit string.

O=S(=O)(O)Oc1cc(-c2ccccc2)ccc1Cl [3-yl PCB 3 sulfate]    100

IN: Give me measured minimal effective concentration, please, for this molecule: Clc1ccc(-c2ccccc2)cc1
OUT: 7.4

IN: Give me measured minimal effective concentration, please, for this molecule: Oc1ccc(-c2cccc(Cl)c2)cc1Cl
OUT: 8.57

IN: Give me measured minimal effective concentration, please, for this molecule: O=C1C=CC(=O)C(c2ccc(Cl)cc2)=C1
OUT: 0.06

IN: Give me measured minimal effective concentration, please, for this molecule: Oc1cc(Cl)cc(-c2cccc(Cl)c2)c1
OUT: 13.8
